- target: JAK3 (Homo sapiens, UniProt P52333)
- Construct: endogenous in cells
- Sequence (P52333 whole entry): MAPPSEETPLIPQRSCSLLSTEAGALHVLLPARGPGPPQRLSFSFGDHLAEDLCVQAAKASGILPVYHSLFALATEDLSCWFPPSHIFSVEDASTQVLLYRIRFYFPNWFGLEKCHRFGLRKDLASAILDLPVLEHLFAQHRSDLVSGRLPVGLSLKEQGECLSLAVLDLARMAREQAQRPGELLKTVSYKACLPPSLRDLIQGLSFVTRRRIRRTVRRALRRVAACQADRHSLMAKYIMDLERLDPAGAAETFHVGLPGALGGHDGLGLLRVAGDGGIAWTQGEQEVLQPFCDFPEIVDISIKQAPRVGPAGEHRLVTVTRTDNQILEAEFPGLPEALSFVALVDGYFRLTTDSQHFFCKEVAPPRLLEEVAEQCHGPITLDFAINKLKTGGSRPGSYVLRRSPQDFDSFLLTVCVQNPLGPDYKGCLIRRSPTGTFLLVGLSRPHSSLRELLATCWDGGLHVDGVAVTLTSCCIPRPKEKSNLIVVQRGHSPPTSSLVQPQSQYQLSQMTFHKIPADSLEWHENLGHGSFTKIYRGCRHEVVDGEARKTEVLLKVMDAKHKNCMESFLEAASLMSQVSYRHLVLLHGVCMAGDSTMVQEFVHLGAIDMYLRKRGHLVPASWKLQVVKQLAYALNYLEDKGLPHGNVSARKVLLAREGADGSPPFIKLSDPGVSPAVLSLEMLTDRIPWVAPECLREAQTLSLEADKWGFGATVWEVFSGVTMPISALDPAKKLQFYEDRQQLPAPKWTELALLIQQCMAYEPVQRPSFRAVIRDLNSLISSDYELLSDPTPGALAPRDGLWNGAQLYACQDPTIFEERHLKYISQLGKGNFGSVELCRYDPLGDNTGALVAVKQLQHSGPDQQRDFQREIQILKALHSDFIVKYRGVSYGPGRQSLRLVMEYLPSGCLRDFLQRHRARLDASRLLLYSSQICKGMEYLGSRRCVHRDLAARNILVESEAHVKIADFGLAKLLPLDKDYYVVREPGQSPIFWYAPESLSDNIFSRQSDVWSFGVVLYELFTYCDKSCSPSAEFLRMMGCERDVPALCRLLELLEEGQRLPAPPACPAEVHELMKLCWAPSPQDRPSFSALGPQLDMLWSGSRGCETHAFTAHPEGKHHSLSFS
- assay_explanation: Kinobeads assay, JAK3
- experimental_setup: mixed Molt4/Ramos lysate, read-out: Inhibition values (IC50) JAK3
- Description: The compounds of the present invention as described in the previous examples were tested in a Kinobeads™ assay as described for ZAP-70 (WO-A 2007/137867). […] Bound proteins were then eluted and the presence of JAK1, JAK2, JAK3 and TYK2 was detected and quantified using specific antibodies in a dot blot procedure and the Odyssey infrared detection system. Dose response curves for individual kinases were generated and IC50 values calculated. […]
pIC50: −log10 of the molar value.
result_type: pIC50

Sure, the documented pIC50 for CNC(=O)Cn1cc(Nc2ncc(F)c(N[C@H](CO)c3cccc(-c4cnn(C)c4)c3)n2)cn1 is 6.00 to 7.00

Sure, the documented pIC50 for OC[C@@H](Nc1nc(Nc2cn[nH]c2)ncc1Cl)c1ccccc1F is > 7.00

Sure, the documented pIC50 for Cn1cc(Nc2ncc(Cl)c(N[C@H](C(=O)NCCO)c3ccccc3)n2)cn1 is > 7.00

Sure, the documented pIC50 for OCCn1cc(Nc2ncc(Cl)c(N[C@H](CO)c3ccccn3)n2)cn1 is > 7.00

Sure, the documented pIC50 for Cn1cc(-c2cccc([C@@H](CO)Nc3nc(Nc4cnn(CCO)c4)ncc3Cl)c2)cn1 is 6.00 to 7.00

Sure, the documented pIC50 for COc1ccccc1[C@@H](CO)Nc1nc(Nc2cnn(C(C)C)c2)ncc1Cl is > 7.00

Sure, the documented pIC50 for OCCn1cc(Nc2ncc(Cl)c(N[C@@H](CO)c3ccccc3)n2)cn1 is 5.00 to 6.00

Sure, the documented pIC50 for Cc1cnc(Nc2cnn(CC(F)F)c2)nc1N[C@H](CO)c1cc(F)cc(F)c1 is 6.00 to 7.00
